test: Water solubility of peptides when preparing stock solutions; assay type: physicochemical; settings: stock solution in sterile distilled water or 100% DMSO; read-out: solubility of peptide (water soluble or water insoluble, dissolved in DMSO)
measurement label: solubility

Enquiry: I am curious: what solubility value has been reported for CC[C@H](C)[C@H](NC(=O)[C@H](Cc1ccc(O)cc1)NC(=O)[C@H](C)NC(=O)[C@H](CC(=O)O)NC(=O)[C@H](C)NC(=O)[C@@H](N)C(C)C)C(=O)N[C@H](C(=O)N[C@@H](CC(C)C)C(=O)N[C@H](C(=O)N[C@H](C(=O)N[C@@H](CC(C)C)C(=O)N1CCC[C@H]1C(=O)N[C@@H](CCCCN)C(=O)N[C@@H](CO)C(=O)N[C@@H](CO)C(=O)O)[C@@H](C)O)C(C)C)[C@@H](C)O [Peptide 38.3, VADAYITLVTLPKSS] ?
Return: < 2500 µg/mL

* * *

test: Water solubility of peptides when preparing stock solutions; format: physicochemical; settings: stock solution in sterile distilled water or 100% DMSO; read-out: solubility of peptide (water soluble or water insoluble, dissolved in DMSO)
Where a SMILES comes first, the peptide text is derived from it.
measurement label: solubility

CC[C@H](C)[C@H](NC(=O)[C@H](CC(=O)O)NC(=O)[C@H](CC(=O)O)NC(=O)[C@@H](N)CO)C(=O)N[C@H](C(=O)N[C@@H](Cc1ccc(O)cc1)C(=O)N[C@H](C(=O)N[C@@H](C)C(=O)N[C@H](C(=O)N[C@@H](C)C(=O)N[C@H](C(=O)N[C@@H](CC(C)C)C(=O)N1CCC[C@H]1C(=O)N[C@@H](CC(N)=O)C(=O)N[C@@H](Cc1ccc(O)cc1)C(=O)O)[C@@H](C)O)[C@@H](C)O)C(C)C)[C@@H](C)O [Peptide 37.2, SDDITYVATATLPNY] (H-SDDITYVATATLPNY-OH): < 2500 µg/mL

Alright, here's another molecule for you.
Enquiry: I am curious: what solubility value has been reported for CC[C@H](C)[C@H](NC(=O)[C@H](CCC(=O)O)NC(=O)[C@H](CC(=O)O)NC(=O)[C@@H]1CCCN1)C(=O)N[C@@H](CCC(N)=O)C(=O)NCC(=O)N[C@@H](Cc1ccccc1)C(=O)N1CCC[C@H]1C(=O)N[C@H](C(=O)N[C@H](C(=O)N[C@@H](CCCCN)C(=O)N[C@@H](CC(C)C)C(=O)N[C@@H](Cc1ccccc1)C(=O)N1CCC[C@H]1C(=O)N[C@@H](C)C(=O)O)[C@@H](C)CC)[C@@H](C)O [Peptide 43.2, PDEIQGFPTIKLFPA] (H-PDEIQGFPTIKLFPA-OH) ?
Return: > 2500 µg/mL

* * *

test: Water solubility of peptides when preparing stock solutions; assay type: physicochemical; conditions: stock solution in sterile distilled water or 100% DMSO; read-out: solubility of peptide (water soluble or water insoluble, dissolved in DMSO)
Where a SMILES comes first, the peptide text is derived from it.
measurement label: solubility

CC(C)C[C@H](NC(=O)[C@H](C)NC(=O)[C@H](CCCNC(=N)N)NC(=O)[C@H](C)N)C(=O)N[C@@H](CCCNC(=N)N)C(=O)N[C@@H](CCCNC(=N)N)C(=O)N[C@@H](CC(C)C)C(=O)N[C@@H](CCCNC(=N)N)C(=O)N[C@H](C(=O)N[C@@H](C)C(=O)N[C@@H](CS)C(=O)N[C@@H](CCC(=O)O)C(=O)N[C@@H](CCCNC(=N)N)C(=O)N[C@@H](C)C(=O)N[C@@H](CCCCN)C(=O)O)[C@@H](C)O [Peptide 41.2, ARALRRLRTACERAK] (H-ARALRRLRTACERAK-OH; N-terminus and C-terminus assumed): > 2500 µg/mL

Enquiry: I am curious: what solubility value has been reported for CC(C)[C@H](NC(=O)[C@H](Cc1ccc(O)cc1)NC(=O)[C@H](CO)NC(=O)[C@H](CO)NC(=O)[C@H](C)NC(=O)[C@H](CC(=O)O)NC(=O)[C@H](CO)NC(=O)[C@H](C)NC(=O)[C@H](Cc1ccccc1)NC(=O)[C@H](Cc1ccc(O)cc1)NC(=O)[C@@H](NC(=O)[C@H](Cc1ccc(O)cc1)NC(=O)[C@H](C)NC(=O)CNC(=O)[C@@H](N)CCCCN)C(C)C)C(=O)O [Peptide 68.2.1, KGAYVYFASDASSYV] (H-KGAYVYFASDASSYV-OH) ?
Return: < 2500 µg/mL

* * *

experiment: Water solubility of peptides when preparing stock solutions; assay type: physicochemical; conditions: stock solution in sterile distilled water or 100% DMSO; read-out: solubility of peptide (water soluble or water insoluble, dissolved in DMSO)
Where a SMILES comes first, the peptide text is derived from it.
measurement label: solubility

Take a look at these entries with their results.
CC[C@H](C)[C@H](NC(=O)[C@H](C)NC(=O)[C@H](Cc1c[nH]c2ccccc12)NC(=O)[C@@H](N)C(C)C)C(=O)N[C@H](C(=O)N[C@@H](CC(C)C)C(=O)N[C@@H](CC(C)C)C(=O)N[C@@H](CO)C(=O)N[C@@H](CC(C)C)C(=O)N[C@H](C(=O)N[C@@H](CCC(N)=O)C(=O)N[C@@H](CC(C)C)C(=O)N[C@H](C(=O)N[C@H](C(=O)N1CCC[C@H]1C(=O)O)[C@@H](C)O)[C@@H](C)O)C(C)C)C(C)C [Peptide 48.2.1, VWAIVLLSLVQLTTP] (H-VWAIVLLSLVQLTTP-OH): < 2500 µg/mL
CC[C@H](C)[C@H](NC(=O)[C@H](CC(N)=O)NC(=O)[C@H](Cc1ccccc1)NC(=O)CNC(=O)[C@H](CC(C)C)NC(=O)[C@H](CO)NC(=O)[C@H](CC(N)=O)NC(=O)[C@H](Cc1ccc(O)cc1)NC(=O)[C@H](Cc1ccc(O)cc1)NC(=O)[C@@H](NC(=O)CNC(=O)[C@@H](N)CCC(=O)O)[C@@H](C)O)C(=O)N[C@@H](CCCCN)C(=O)N[C@@H](C)C(=O)N[C@H](C(=O)O)[C@@H](C)O [Peptide 35.2, EGTYYNSLGFNIKAT] (H-EGTYYNSLGFNIKAT-OH): < 2500 µg/mL
CC[C@H](C)[C@H](NC(=O)[C@H](CC(=O)O)NC(=O)[C@H](CCC(N)=O)NC(=O)[C@@H]1CCCN1C(=O)[C@@H](NC(=O)[C@H](Cc1ccccc1)NC(=O)[C@H](CC(=O)O)NC(=O)[C@H](CO)NC(=O)[C@@H](N)CC(C)C)C(C)C)C(=O)N[C@@H](CCC(N)=O)C(=O)N[C@@H](CCCCN)C(=O)N[C@@H](CC(C)C)C(=O)N[C@@H](Cc1c[nH]c2ccccc12)C(=O)N[C@@H](Cc1c[nH]cn1)C(=O)N[C@@H](CO)C(=O)O [Peptide 67.2, LSDFVPQDIQKLWHS] (H-LSDFVPQDIQKLWHS-OH): > 2500 µg/mL
CC[C@H](C)[C@H](NC(=O)[C@H](C)N)C(=O)N[C@@H](CCC(=O)O)C(=O)N[C@@H](CC(C)C)C(=O)N[C@@H](CCCCN)C(=O)N[C@@H](CO)C(=O)N[C@H](C(=O)N[C@@H](CC(N)=O)C(=O)N[C@@H](C)C(=O)N[C@@H](CC(C)C)C(=O)N[C@@H](CC(C)C)C(=O)N[C@@H](CC(C)C)C(=O)N[C@@H](CCCCN)C(=O)N[C@H](C(=O)N[C@@H](CC(N)=O)C(=O)O)C(C)C)C(C)C [Peptide 61.2.1, AIELKSVNALLLKVN] (H-AIELKSVNALLLKVN-OH): < 2500 µg/mL
CC(C)C[C@H](NC(=O)CNC(=O)[C@H](CC(C)C)NC(=O)[C@H](CC(C)C)NC(=O)[C@H](CC(C)C)NC(=O)[C@H](Cc1ccc(O)cc1)NC(=O)[C@H](C)NC(=O)[C@H](C)NC(=O)[C@H](CC(C)C)NC(=O)[C@H](Cc1c[nH]cn1)NC(=O)[C@H](CCCCN)NC(=O)[C@@H](N)CC(C)C)C(=O)NCC(=O)NCC(=O)N[C@@H](CC(N)=O)C(=O)O [Peptide 57.2.1, LKHLAAYLLLGLGGN] (H-LKHLAAYLLLGLGGN-OH): > 2500 µg/mL

Alright, here's another compound for you.
Enquiry: I am curious: what solubility value has been reported for CC(C)C[C@H](NC(=O)[C@@H]1CCCN1C(=O)[C@H](C)NC(=O)[C@H](C)NC(=O)[C@H](C)NC(=O)[C@H](C)NC(=O)[C@H](CC(C)C)NC(=O)CNC(=O)[C@H](C)NC(=O)[C@H](C)NC(=O)[C@H](C)NC(=O)[C@H](Cc1ccccc1)NC(=O)[C@H](CC(C)C)NC(=O)[C@H](CO)NC(=O)[C@H](C)N)C(=O)O [Peptide L6-3, ASLFAAAGLAAAAPL] (H-ASLFAAAGLAAAAPL-OH) ?
Return: < 2500 µg/mL
